So I've got a bunch of compounds here, and I need their IC50 values.
Target desc: IDH (endogenous IDH1 R132C) in HT1080 cell (Homo sapiens, UniProt O75874, R132C)
Construct: which harbor endogenous heterozygous IDH1 R132C and R132H mutation respectively and accumulate D-2-HG
Sequence (O75874 2-414 R132C): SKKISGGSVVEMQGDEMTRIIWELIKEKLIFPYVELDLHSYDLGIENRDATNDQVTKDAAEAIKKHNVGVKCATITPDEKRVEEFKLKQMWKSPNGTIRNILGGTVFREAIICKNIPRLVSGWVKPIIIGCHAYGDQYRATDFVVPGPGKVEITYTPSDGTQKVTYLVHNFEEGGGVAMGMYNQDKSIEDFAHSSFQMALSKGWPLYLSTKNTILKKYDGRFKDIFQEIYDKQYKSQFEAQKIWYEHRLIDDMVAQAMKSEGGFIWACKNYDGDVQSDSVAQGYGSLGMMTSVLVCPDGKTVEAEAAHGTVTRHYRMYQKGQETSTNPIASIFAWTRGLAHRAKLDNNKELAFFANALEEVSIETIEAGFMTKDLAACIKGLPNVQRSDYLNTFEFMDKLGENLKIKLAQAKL
Assay protocol: Cell-based assay for IDH inhibition (decrease of D-2-HG) in HT1080 cells
Experimental context: human fibrosarcoma cell line HT1080, 16 hours treatment, D-2-HG by LC-MS, in triplet

Worked cases, answers included:
{"columns": ["Query smiles", "Result"],
 "data": [
  ["CCN1Cc2c(ccnc2N[C@@H](C)c2ncc(-c3cccc(C)c3F)cn2)C1=O", "> 1000 nM"],
  ["CCN1Cc2c(ccnc2N[C@@H](C)c2ccc(Oc3cccc4c3ccn4C)c(F)c2)C1=O", "500 to 1000 nM"],
  ["CCN1Cc2c(ccnc2N[C@@H](C)c2ccc(OC3CCCCC3)c(F)c2)C1=O", "> 1000 nM"]
]}

Switching to the query record.
Q: // lookup IC50 for `CCN1Cc2c(ccnc2N[C@@H](C)c2cc(F)c(-c3cc(C(C)(C)F)c(C(F)(F)F)cn3)cc2F)C1=O`
Ans: < 100 nM

====

Please go through the items and note down their pIC50.
Target desc: IDH1 R132H (Homo sapiens, UniProt O75874, R132H)
Construct: 6xHis
Sequence (O75874 whole entry R132H): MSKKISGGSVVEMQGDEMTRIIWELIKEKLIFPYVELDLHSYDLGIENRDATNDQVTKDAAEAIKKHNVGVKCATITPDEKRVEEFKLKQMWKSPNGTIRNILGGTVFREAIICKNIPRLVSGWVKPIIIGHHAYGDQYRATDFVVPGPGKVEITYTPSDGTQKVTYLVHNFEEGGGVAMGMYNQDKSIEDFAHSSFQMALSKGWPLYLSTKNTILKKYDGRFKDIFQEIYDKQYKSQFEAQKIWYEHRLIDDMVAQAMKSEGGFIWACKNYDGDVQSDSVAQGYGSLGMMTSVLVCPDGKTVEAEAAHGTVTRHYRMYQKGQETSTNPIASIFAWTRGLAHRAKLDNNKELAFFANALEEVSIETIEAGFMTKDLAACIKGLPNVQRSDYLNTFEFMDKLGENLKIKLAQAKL
Assay protocol: Biochemical assay for IDH inhibition (NADPH fluorescence), mutant IDH1 R132H
Experimental context: 50 nM IDH1-R132H, 1 hour pre-incubation, in triplet
pIC50: −log10 of the molar value.

Consider the following illustrative entries.
{"columns": ["Compound", "pIC50"],
 "data": [
  ["CCN1Cc2c(ccnc2N[C@@H](C)c2cc(F)c(Oc3ccc(C)cc3)cc2F)C1=O [Compound 20]", "6.30 to 7.00"],
  ["Cc1ccc(Oc2ccc([C@H](C)Nc3nccc4c3CN(CC(F)F)C4=O)cc2F)cc1 [Compound 17]", "6.30 to 7.00"],
  ["CCN1Cc2c(ccnc2N[C@@H](C)c2cc(F)c(-c3ccnc(CC4CC4)c3)cc2F)C1=O [Compound 91]", "6.30 to 7.00"],
  ["CCN1Cc2c(ccnc2N[C@@H](C)c2ccc(Oc3cnn(C)c3)c(F)c2)C1=O [Compound 4]", "< 6.00"],
  ["CCN1Cc2c(ccnc2N[C@@H](C)c2ccc(C(=O)c3cccnc3)c(F)c2)C1=O [Compound 61]", "< 6.00"],
  ["CCN1Cc2c(ccnc2N[C@@H](C)c2cc(F)c(-c3cc(C(F)(F)F)ncc3OC)cc2F)C1=O [Compound 143]", "> 7.00"],
  ["CCN1Cc2c(ccnc2N[C@@H](C)c2cnc(-c3cc(C(C)(C)C)ccn3)c(F)c2)C1=O [Compound 44]", "< 6.00"]
]}

The record that follows has no pIC50 shown yet.
Q: For the compound CCN1Cc2c(ccnc2N[C@@H](C)c2cc(F)c(-c3cc(C(F)(F)F)c(O)cn3)cc2F)C1=O [Compound 164] , what pIC50 is on record?
Ans: 6.30 to 7.00

====

Kindly supply the reported IC50 values for the records listed here.
Target desc: IDH1 R132H (Homo sapiens, UniProt O75874, R132H)
Construct: 6xHis
Assay protocol: Biochemical assay for IDH inhibition (NADPH fluorescence), mutant IDH1 R132H
Experimental context: 50 nM IDH1-R132H, 1 hour pre-incubation, in triplet

Record excerpt, results attached:
{"columns": ["Compound", "Result"],
 "data": [
  ["CCN1Cc2c(ccnc2N[C@@H](C)c2ccc(C3CCCC3)c(F)c2)C1=O [Compound 68]", "0.5 to 1 µM"],
  ["C/C=C(\\c1ccnc(-c2cc(F)c([C@H](C)Nc3nccc4c3CN(CC)C4=O)cc2F)c1)C(F)(F)F [Compound 125]", "< 0.1 µM"],
  ["CCN1Cc2c(ccnc2N[C@@H](C)c2ccc(Oc3cccnc3)c(F)c2)C1=O [Compound 13]", "> 1 µM"],
  ["CCN1Cc2c(ccnc2N[C@@H](C)c2ccc(-c3ccc(F)cc3)c(F)c2)C1=O [Compound 74]", "> 1 µM"],
  ["CCN1Cc2c(ccnc2N[C@@H](C)c2ccc(Nc3ccccc3)c(F)c2)C1=O [Compound 32]", "> 1 µM"],
  ["CCN1Cc2c(ccnc2N[C@@H](C)c2cc(F)c(-c3cc(C(C)(C)F)cc(CF)n3)cc2F)C1=O [Compound 118]", "< 0.1 µM"]
]}

Hey, quick one: what's IC50 for each of these?
1. CCN1Cc2c(ccnc2N[C@@H](C)c2cc(F)c(-c3cc(C(C)(C)F)ccn3)cc2F)C1=O [Compound 112]
2. C[C@H](Nc1nccc2c1CN(CC(F)F)C2=O)c1ccc(-c2ccnc(C(C)(C)C)c2)c(F)c1 [Compound 37]
3. CCN1Cc2c(N[C@@H](C)c3ccc(-c4ccc(F)c(C)c4)c(F)c3)ncc(F)c2C1=O [Compound 41]
4. CCN1Cc2c(ccnc2N[C@@H](C)c2cc(F)c(-c3ccnc(C(C)(C)C#N)c3)cc2F)C1=O [Compound 154]
5. CCN1Cc2c(ccnc2N[C@@H](C)c2cc(F)c(-c3cc(C(C)(C)C)ncn3)cc2F)C1=O [Compound 110]
6. CCN1Cc2c(ccnc2N[C@@H](C)c2ccc(-c3ccnc(C(C)(C)C)c3)c(F)c2F)C1=O [Compound 42]

Ans:
< 0.1 µM
0.1 to 0.5 µM
0.1 to 0.5 µM
0.1 to 0.5 µM
< 0.1 µM
< 0.1 µM

Could you report IC50 for every entry in the following list?
1. CCN1Cc2c(ccnc2N[C@@H](C)c2cc(F)c(-c3cc(C(F)(F)F)ncc3OCOC)cc2F)C1=O [Compound 145]
2. CCN1Cc2c(ccnc2N[C@@H](C)c2cc(F)c(-c3ccnc(C(F)(F)C(F)(F)F)c3)cc2F)C1=O [Compound 107]
3. CCN1Cc2c(ccnc2N[C@@H](C)c2cc(F)c(-c3cc(NC(C)(C)C)cc(C)n3)cc2F)C1=O [Compound 128]

Ans:
["< 0.1 µM", "< 0.1 µM", "< 0.1 µM"]

====

Target desc: IDH (endogenous IDH1 R132C) in HT1080 cell (Homo sapiens, UniProt O75874, R132C)
Construct: which harbor endogenous heterozygous IDH1 R132C and R132H mutation respectively and accumulate D-2-HG
Assay protocol: Cell-based assay for IDH inhibition (decrease of D-2-HG) in HT1080 cells
Experimental context: human fibrosarcoma cell line HT1080, 16 hours treatment, D-2-HG by LC-MS, in triplet
pIC50: −log10 of the molar value.
Test readout: pIC50

Known pIC50 results, listed for orientation:
{"columns": ["Query smiles", "pIC50"],
 "data": [
  ["CCN1Cc2c(ccnc2N[C@@H](C)c2ccc(-c3ccnc(C(C)(C)C)c3)c(F)c2F)C1=O", "6.30 to 7.00"],
  ["CCN1Cc2c(ccnc2N[C@@H](C)c2cc(F)c(-c3cc(C(C)(C)F)c(OCOC)cn3)cc2F)C1=O", "> 7.00"],
  ["CCN1Cc2c(ccnc2N[C@@H](C)c2cc(F)c(-c3cc(C(F)(F)F)cc(CF)n3)cc2F)C1=O", "6.30 to 7.00"]
]}

Please state, for each entry, its recorded pIC50.
1. CCN1Cc2c(ccnc2N[C@@H](C)c2ncc(-c3ccc(OC)cc3)cn2)C1=O
2. CCN1Cc2c(ccnc2N[C@@H](C)c2ccc(-c3ccnc(C(C)(C)C#N)c3)c(F)c2)C1=O

Ans:
< 6.00
< 6.00

Dear reader, for each entry below, please note its pIC50.
1. CCN1Cc2c(ccnc2N[C@@H](C)c2ccc(-c3ccnc(C(C)(C)C)c3)cn2)C1=O
2. CCN1Cc2c(ccnc2N[C@@H](C)c2cc(F)c(-c3cc(C(C)(C)F)c(C#N)cn3)cc2F)C1=O
3. Cc1ccc(Oc2ccc([C@H](C)Nc3nccc4c3CN(CC(F)F)C4=O)cc2F)cc1

Ans:
["< 6.00", "> 7.00", "< 6.00"]

Please state, for each entry, its recorded pIC50.
1. CCN1Cc2c(ccnc2N[C@@H](C)c2cc(F)c(-c3ccnc(C4(O)COC4)c3)cc2F)C1=O
2. CCN1Cc2c(ccnc2N[C@@H](C)c2ncc(-c3ccc(F)c(C)c3)cn2)C1=O
3. CCN1Cc2c(ccnc2N[C@@H](C)c2cc(F)c(-c3cc(C(F)(F)F)c(O)cn3)cc2F)C1=O
4. CCN1Cc2c(N[C@@H](C)c3ccc(Oc4ccc(C)cc4)c(F)c3)ncc(F)c2C1=O

Ans:
["< 6.00", "< 6.00", "6.00 to 6.30", "< 6.00"]

Q: Field request: pIC50 | item: `CCN1Cc2c(ccnc2N[C@@H](C)c2cc(F)c(-c3cc(OC(C)(C)C)c(Cl)cn3)cc2F)C1=O`
Ans: > 7.00

Hey, just so you know, these numbers are from patent US12441725B2.
